# test: MLM, hepatic metabolic stability
# Format: in vitro ADME
# assay_setup: mouse hepatic microsome, amount at 30 minutes compared with 0 minutes
measured_parameter: MLM (%)
The reply should consist of the numeric value with the unit placed after it.

// lookup MLM (%) for C=CCN1CC(=O)N2[C@@H](Cc3ccc(O)cc3)C(=O)N(Cc3cccc4c(-c5ccc(NC(=O)NC6CCCCC6)cc5)cn(C)c34)C[C@@H]2N1C(=O)NCc1ccccc1 56.9%

Try this compound next: C=CCN1CC(=O)N2[C@@H](Cc3ccc(O)cc3)C(=O)N(Cc3cccc4c(-c5ccc(NC(=S)NC(=O)OCC)nc5)cn(C)c34)C[C@@H]2N1C(=O)NCc1ccccc1 66.8%

Try this compound next: C=CCN1CC(=O)N2C(Cc3ccc(O)cc3)C(=O)N(Cc3cccc4c(C(=O)Nc5ccc(N6CCN(Cc7ccc(OC)cc7)CC6)nc5)cn(C)c34)CC2N1C(=O)NCc1ccccc1 (stereo not drawn) 52.8%
